# Assay type: in vivo, human
# Assay context: human, plasma, po, 5 mg
Experimental readout: Vd/F (L)
Provide only the numeric value, understood in L.

// Vd/F value for "C[C@@H](N)c1cc(Cl)ccc1Cn1c(=S)[nH]c(=O)c2[nH]ccc21" : 1960

* * *

# Type: in vivo, human
# Assay context: human, urine, po, 10 mg
Experimental readout: CL renal (mL/min)
Provide only the numeric value, understood in mL/min.

// CL renal value for C[C@@H](N)c1cc(Cl)ccc1Cn1c(=S)[nH]c(=O)c2[nH]ccc21 [Mitiperstat] : 282

* * *

# Format: in vivo, human
# Assay context: human, urine, po, 2.5 mg
Experimental readout: CL renal

// CL renal value for C[C@@H](N)c1cc(Cl)ccc1Cn1c(=S)[nH]c(=O)c2[nH]ccc21 [Mitiperstat] : 248 mL/min
